Experiment: Inhibition of Cynomolgus monkey FBPase
Set-up: species or system Macaca fascicularis
pIC50: −log10 of the molar value.
Measured Metric: pIC50

1) CC(C)(C)C(=O)c1sc(N)nc1-c1ccc(P(=O)(O)O)o1
6.92

----------
Molecular target: Fructose-1,6-bisphosphatase 1 (Homo sapiens, UniProt P09467)
Sequence (P09467 whole entry): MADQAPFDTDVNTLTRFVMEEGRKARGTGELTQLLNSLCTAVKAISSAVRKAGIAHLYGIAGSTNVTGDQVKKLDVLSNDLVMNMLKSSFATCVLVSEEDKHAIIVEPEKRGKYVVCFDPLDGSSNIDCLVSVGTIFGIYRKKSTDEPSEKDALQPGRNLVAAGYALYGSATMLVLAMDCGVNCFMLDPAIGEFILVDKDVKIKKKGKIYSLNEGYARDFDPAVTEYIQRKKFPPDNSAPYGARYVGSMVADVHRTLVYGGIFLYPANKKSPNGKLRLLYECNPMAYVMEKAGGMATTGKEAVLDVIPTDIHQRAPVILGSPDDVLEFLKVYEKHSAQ
Experiment: Inhibition of human liver FBPase
pIC50: −log10 of the molar value.
Measured Metric: pIC50

1) COc1ccc(CC(=O)Nc2cccc(-c3nnc(-c4ccc(C)cc4)o3)c2)cc1OC
5.35
2) COc1ccc(CC(=O)Nc2cccc(-c3nnc(-c4cccc(Cl)c4)o3)c2)cc1OC
4.81
